Target: sigma1 receptors (Homo sapiens)
Sequence (Q99720 whole entry): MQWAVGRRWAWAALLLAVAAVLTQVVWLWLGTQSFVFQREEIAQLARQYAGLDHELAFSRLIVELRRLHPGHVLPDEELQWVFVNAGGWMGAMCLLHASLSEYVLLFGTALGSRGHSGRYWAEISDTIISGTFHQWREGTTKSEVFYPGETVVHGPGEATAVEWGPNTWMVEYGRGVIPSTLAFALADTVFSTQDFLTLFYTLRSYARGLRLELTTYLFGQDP
pKi: −log10 of the molar value.
result.type: pKi

compound="O=C(CN1CCC(CN2Cc3ccccc3C2=O)CC1)c1ccc(F)cc1 [Compound (I)]" result_type=pKi endpoint_value=6.60

====

Biological target: sigma2 receptors (Homo sapiens, UniProt Q5BJF2)
Sequence (Q5BJF2 whole entry): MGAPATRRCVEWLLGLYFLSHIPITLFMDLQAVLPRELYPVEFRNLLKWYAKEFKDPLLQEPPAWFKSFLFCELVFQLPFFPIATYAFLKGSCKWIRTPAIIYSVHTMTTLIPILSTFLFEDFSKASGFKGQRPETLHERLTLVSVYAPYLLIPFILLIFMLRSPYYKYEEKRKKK
pKi: −log10 of the molar value.
result.type: pKi

structure_smiles_string=O=C(CN1CCC(CN2Cc3ccccc3C2=O)CC1)c1ccc(F)cc1 assay_system="sigma2 receptors (Homo sapiens, UniProt Q5BJF2)" endpoint_value=8.09

====

Biological target: 5-HT2A receptors (Homo sapiens, UniProt P28223)
Sequence (P28223 whole entry): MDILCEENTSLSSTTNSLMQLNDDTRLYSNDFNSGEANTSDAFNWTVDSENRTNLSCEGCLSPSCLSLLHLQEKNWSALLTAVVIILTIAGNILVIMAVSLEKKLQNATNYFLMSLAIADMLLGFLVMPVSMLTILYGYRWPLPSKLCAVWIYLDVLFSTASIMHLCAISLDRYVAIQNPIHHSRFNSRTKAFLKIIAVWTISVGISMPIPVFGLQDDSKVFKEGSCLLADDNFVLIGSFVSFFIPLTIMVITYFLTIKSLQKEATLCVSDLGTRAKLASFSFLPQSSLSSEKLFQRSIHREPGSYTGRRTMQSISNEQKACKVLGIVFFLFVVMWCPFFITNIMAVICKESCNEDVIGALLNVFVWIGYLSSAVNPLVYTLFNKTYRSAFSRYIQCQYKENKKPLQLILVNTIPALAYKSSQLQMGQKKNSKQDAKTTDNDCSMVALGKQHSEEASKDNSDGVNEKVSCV
pKi: −log10 of the molar value.
result.type: pKi

compound="O=C(CN1CCC(CN2Cc3ccccc3C2=O)CC1)c1ccc(F)cc1 [Compound (I)]" result_type=pKi endpoint_value=8.12
